# Study target: GKRP (Glucokinase Regulatory Protein) with human His-hepatic GK (Homo sapiens, UniProt Q14397)
# Sequence (Q14397 whole entry): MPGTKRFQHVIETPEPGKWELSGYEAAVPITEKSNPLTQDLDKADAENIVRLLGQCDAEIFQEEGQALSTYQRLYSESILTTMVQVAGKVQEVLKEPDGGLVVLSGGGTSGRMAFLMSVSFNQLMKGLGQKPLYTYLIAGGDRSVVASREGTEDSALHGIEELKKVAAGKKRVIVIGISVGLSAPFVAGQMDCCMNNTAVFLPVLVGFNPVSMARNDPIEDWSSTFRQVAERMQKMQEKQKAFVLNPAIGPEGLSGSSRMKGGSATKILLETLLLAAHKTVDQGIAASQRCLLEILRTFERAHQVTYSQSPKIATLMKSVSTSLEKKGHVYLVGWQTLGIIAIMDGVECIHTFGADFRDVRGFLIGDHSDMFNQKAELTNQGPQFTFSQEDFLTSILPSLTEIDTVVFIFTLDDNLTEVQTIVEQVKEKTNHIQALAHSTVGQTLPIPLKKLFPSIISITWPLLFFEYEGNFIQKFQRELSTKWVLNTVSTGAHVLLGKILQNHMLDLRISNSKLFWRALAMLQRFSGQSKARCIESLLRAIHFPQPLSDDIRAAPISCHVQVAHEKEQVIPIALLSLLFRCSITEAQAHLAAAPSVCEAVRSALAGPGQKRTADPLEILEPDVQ
# Assay: GKRP NADPH Coupled Assay
# Assay type: biochemical
# Measurement conditions: GK-GKRP EC50 (NADPH-coupled), indirect measure of glucose-6-phosphate, fluorescence; 1 μM GKRP (10×), 20 nM GK (5×)
Test readout: EC50 (µM)
Numbers only, in µM.

> print(dat)
                                   compound  experimental.value
1  CC(O)(c1ccc(N2CCN(S(=O)(=O)c3ccccc3)CC2)cc1)C(F)(F)F (single isomer, unassigned) [Example 24 Peak #1]                2.57
2  O=S(=O)(c1ccccc1)N1CCN(c2ccc(C(O)(C(F)(F)F)C(F)(F)F)cc2)CC1               0.803
3  CC(O)(c1ccc(-c2ccc(S(=O)(=O)c3ccccc3)c(Cl)c2)nc1)C(F)(F)F (racemic)                3.75
4  O=S(=O)(c1ccccc1F)N1CCN(c2ccc(C(O)(C(F)(F)F)C(F)(F)F)cc2)CC1                1.88
5  CC1(C#Cc2cc(C(C)(O)C(F)(F)F)ccc2N2CCN(S(=O)(=O)c3cccs3)CC2)COC1 (racemic)                 2.9
6  C[C@H]1CN(S(=O)(=O)c2ccoc2)CCN1c1ccc(C(C)(O)C(F)(F)F)cc1 (stereo partly shown)                3.12

Okay, now this compound:
The reported EC50 of the compound O=S(=O)(c1cccc(Cl)c1)N1CCN(c2ccc(C(O)(C(F)(F)F)C(F)(F)F)cc2)CC1 was 4.41

The reported numbers originate from patent US8431563B2.
